Study system: CD73 activity in MDA-MB-231-GFP cells (Homo sapiens)
Construct: endogenous in cells; host or cells: MDA-MB-231-GFP cells
Sequence (P21589 27-549): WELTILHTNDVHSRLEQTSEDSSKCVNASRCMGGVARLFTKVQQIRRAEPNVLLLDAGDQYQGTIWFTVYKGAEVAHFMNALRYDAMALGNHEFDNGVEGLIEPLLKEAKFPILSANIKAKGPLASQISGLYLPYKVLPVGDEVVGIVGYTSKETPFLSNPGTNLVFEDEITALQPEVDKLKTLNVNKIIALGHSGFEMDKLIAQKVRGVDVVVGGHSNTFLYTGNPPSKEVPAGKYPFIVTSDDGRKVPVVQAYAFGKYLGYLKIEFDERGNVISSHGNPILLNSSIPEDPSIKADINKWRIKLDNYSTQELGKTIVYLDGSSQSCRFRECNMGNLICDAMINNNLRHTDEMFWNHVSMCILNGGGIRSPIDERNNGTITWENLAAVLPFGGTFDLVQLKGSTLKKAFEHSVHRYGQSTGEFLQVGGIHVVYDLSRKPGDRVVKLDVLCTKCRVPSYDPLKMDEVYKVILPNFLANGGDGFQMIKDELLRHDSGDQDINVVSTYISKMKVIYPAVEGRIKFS
Assay summary: MDA-MB-231 Cell Based CD73 Activity Assay (DMEM)
Study conditions: 3000 cells per well, DMEM medium with 10% human plasma, overnight compound treatment, AMP 200 uM
pEC50: −log10 of the molar value.
Measurement label: pEC50

                                   compound  value
0  CC1(C)C(=O)N(CC(F)(F)F)c2cc([C@H]3C[C@@H]3c3cc(-c4c[nH]c(=O)[nH]c4=O)nn4ccnc34)ncc21 (racemic) [Example 718]   9.48
1  O=c1[nH]cc(-c2cc([C@H]3C[C@@H]3c3cccnc3)c3ncc(F)n3n2)c(=O)[nH]1 (racemic) [Example 180]   8.33

a: O=c1[nH]cc(-c2cc([C@@H]3C[C@H]3c3ccc(F)cc3)c3nccn3n2)c(=O)[nH]1 (racemic) [Example 30]
b: O=c1[nH]cc(-c2cc([C@H]3C[C@@H]3c3ccc(OC(F)(F)F)cc3F)c3nccn3n2)c(=O)[nH]1 (racemic) [Example 280]
c: O=C(c1cccc([C@H]2C[C@@H]2c2cc(-c3c[nH]c(=O)[nH]c3=O)nn3ccnc23)c1)N1CC(F)(F)C(F)(F)C1 (racemic) [Example 304]
d: O=c1[nH]cc(-c2cc(N3C[C@H]4CC[C@@H]3C4)c3nccn3n2)c(=O)[nH]1 [Example 642]
q: With regard to pEC50, arrange the entries in ascending order, please. To answer, write out the labels according to the requested order.
a: d, b, a, c
